Assay: Plasma concentration in rapid rat model plasma at 10 mg/kg, po after 6 hrs
Assay type: ADME, organism-based
Set-up: dose 10 mg/kg, route oral
endpointLabel: concentration at 6 h (nM)

[[record]]
mol = "CCN1C(=O)c2nc(-c3ccc(-c4cccc(C(F)(F)F)c4)nc3)n(Cc3ccc(F)c(F)c3)c2N2CC(C)(C)N=C12"
observedresult = 395

[[record]]
mol = "CCN1C(=O)c2nc(-c3ccc(-c4ccccc4)nc3)n(Cc3ccc(F)c(F)c3)c2N2CC(C)(C)N=C12"
observedresult = 2640

[[record]]
mol = "CCN1C(=O)c2nc(-c3ccc(-c4cc(F)cc(F)c4)nc3)n(Cc3ccc(F)c(F)c3)c2N2CC(C)(C)N=C12"
observedresult = 1260


a. CCN1C(=O)c2nc(-c3ccc(-c4ccc(C(F)(F)F)cc4)nc3)n(Cc3ccc(F)c(F)c3)c2N2CC(C)(C)N=C12
b. CCN1C(=O)c2nc(-c3ccc(-c4ccc(F)cc4F)nc3)n(Cc3ccc(F)c(F)c3)c2N2CC(C)(C)N=C12
c. CCN1C(=O)c2nc(-c3ccc(-c4cccc(F)c4)nc3)n(Cc3ccc(F)c(F)c3)c2N2CC(C)(C)N=C12
stdin: Which order do these items take when sorted by rising concentration at 6 h? List them. List the labels in the requested order.
stdout: b, c, a
(b: 537 nM, c: 897 nM, a: 1570 nM)

Data credit: ChEMBL document CHEMBL1921725
